- Study System: 3-hydroxy-3-methylglutaryl-coenzyme A reductase (Rattus norvegicus)
- Sequence (P51639 whole entry): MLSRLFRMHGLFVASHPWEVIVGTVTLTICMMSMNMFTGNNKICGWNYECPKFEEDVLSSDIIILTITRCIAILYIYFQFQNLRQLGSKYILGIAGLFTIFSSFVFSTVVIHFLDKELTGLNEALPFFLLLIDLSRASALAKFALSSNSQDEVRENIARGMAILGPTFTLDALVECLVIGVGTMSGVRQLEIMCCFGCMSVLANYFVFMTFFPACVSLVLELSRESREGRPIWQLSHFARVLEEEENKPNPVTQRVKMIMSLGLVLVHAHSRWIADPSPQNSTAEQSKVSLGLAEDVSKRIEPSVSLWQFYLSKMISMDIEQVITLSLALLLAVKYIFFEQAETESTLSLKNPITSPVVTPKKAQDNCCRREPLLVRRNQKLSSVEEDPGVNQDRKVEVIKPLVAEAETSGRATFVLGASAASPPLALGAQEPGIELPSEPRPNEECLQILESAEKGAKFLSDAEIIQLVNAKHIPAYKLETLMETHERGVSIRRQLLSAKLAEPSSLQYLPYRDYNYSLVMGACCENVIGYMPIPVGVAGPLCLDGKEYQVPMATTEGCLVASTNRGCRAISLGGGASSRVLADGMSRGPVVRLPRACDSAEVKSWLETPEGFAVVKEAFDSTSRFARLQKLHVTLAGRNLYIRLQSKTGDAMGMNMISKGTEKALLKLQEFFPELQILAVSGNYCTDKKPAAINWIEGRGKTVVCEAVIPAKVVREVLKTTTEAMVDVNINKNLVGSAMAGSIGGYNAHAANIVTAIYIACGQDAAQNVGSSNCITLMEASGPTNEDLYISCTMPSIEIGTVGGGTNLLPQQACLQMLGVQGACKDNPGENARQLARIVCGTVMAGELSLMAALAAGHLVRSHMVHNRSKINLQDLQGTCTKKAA
Property: pIC50
pIC50 here: minus log base 10 of the concentration, concentration in moles per litre.

Write down the reported pIC50 of Cn1nnnc1C(=C\c1ccc(F)cc1)/C=C/C(O)CC(O)CC(=O)O (configuration not stated) , test system: 3-hydroxy-3-methylglutaryl-coenzyme A reductase (Rattus norvegicus).
3.68
